Reference source: PubChem BioAssay (NCI)

Tested on: DU-145 prostate
Assay: NCI tumour cell line growth inhibition, 48 h
Residues, ends and D or L forms follow the SMILES beside them. *: point of attachment. Cbz = O=C(OCc1ccccc1)*
Documented TGI across a set of molecules
Please state the figure in µM; there is no need to write the unit.

Consider the worked cases shown below.
molecule: COc1ccc2nc3cccc([N+](=O)[O-])c3c(NC(C)CN(C)C)c2c1 (centres undefined)
property: TGI
value observed: 14.2

molecule: C=CC(=O)Nc1cccc(Oc2nc(Nc3ccc(N4CCN(C)CC4)cc3OC)ncc2Cl)c1
property: TGI
value observed: 6.07

molecule: COc1cc2c(c(OC)c1OC)-c1c(c3ccc([N+](=O)[O-])cc3c(=O)n1CCCN)C2=O
property: TGI
value observed: 16.6

molecule: CC(C)C[C@@H](C=O)NC(=O)[C@H](CC(C)C)NC(=O)[C@H](CC(C)C)NC(=O)OCc1ccccc1 (Cbz-Leu-Leu-Leu-aldehyde)
property: TGI
value observed: 10.6

Next molecule, please.
GET /values?readout=TGI&system=DU-145 prostate&item= COc1ccc(Cn2cc3c(c2-c2cc(OC)c(OC)c(OC)c2)CCc2c(CO)noc2-3)cc1
16

* * *

Test system: HL-60(TB) leukemia
Test: NCI tumour cell line growth inhibition, 48 h
property: TGI

Consider the worked cases shown below.
molecule: CN1NC(c2ccccc2)=C(C#N)C(=O)CC1c1ccc(F)cc1 (stereo unspecified)
target or system: HL-60(TB) leukemia
property: TGI
value observed: > 100 µM
--
molecule: Cc1ccc(C(=O)N/N=C(\N=Nc2ccccc2Cl)c2ccc(N(C)C)cc2)cc1
target or system: HL-60(TB) leukemia
property: TGI
value observed: > 100 µM
--
molecule: Cc1ccccc1C(C(=O)NC1CCCCC1)N(C(=O)CNc1ccc(C#N)cc1)c1cccc(F)c1 (stereo unspecified)
target or system: HL-60(TB) leukemia
property: TGI
value observed: > 100 µM
--
molecule: CCN(CCO)CCNc1ccc(C)c2sc3ccccc3c(=O)c12
target or system: HL-60(TB) leukemia
property: TGI
value observed: 11.3 µM
--
molecule: CCOC(=O)C1SC(=Nc2ccc(Cl)cc2Cl)N=C1C (stereo unspecified)
target or system: HL-60(TB) leukemia
property: TGI
value observed: > 100 µM
--
molecule: O=c1c(-c2ccccc2)c(SCCN2CCOCC2)n(-c2ccccc2)c(=S)n1-c1ccccc1
target or system: HL-60(TB) leukemia
property: TGI
value observed: > 100 µM

GET /values?readout=TGI&system=HL-60(TB) leukemia&item= CN(C)CCNC(=O)c1ccc2oc3cc4ccccc4c(=O)n3c2c1
> 100 µM

What about O=C(CSSCC(=O)Nc1ccc(Br)cc1)Nc1ccc(Br)cc1 ?
48.5 µM

What about Cc1ccc(-c2nnc3s/c(=C\c4ccc(N(C)C)cc4)c(=O)n23)cc1 ?
> 100 µM

* * *

Test system: HCT-116 colon
Experiment: NCI tumour cell line growth inhibition, 48 h
property: TGI (µM)
Please state the figure in µM; there is no need to write the unit.

Consider the worked cases shown below.
mol smiles: NCCSC(c1ccccc1)(c1ccccc1)c1ccccc1
TGI / µM: 1.49
--
mol smiles: COC(=O)c1oc2c(C(=O)/C=C/c3ccc(OC)cc3)c(OCCN3CCOCC3)ccc2c1C
TGI / µM: 4.55
--
mol smiles: c1ccc2c(CNCCCCCCCCNCc3cccc4ccccc34)cccc2c1
TGI / µM: 3.05
--
mol smiles: CC[PH+](CC)CC.CC[PH+](CC)CC.[Au]
TGI / µM: 32.9

Next compound, please.
Returns the measured TGI for the input compound. Input: COc1ccc(-c2nc3c(C(=O)NCCN(C)C)cccc3c3ccccc23)cc1
11.6
